biological target: Delta-type opioid receptor (Homo sapiens); assay: Binding affinity to DOR (unknown origin)
Sequence (P41143 whole entry): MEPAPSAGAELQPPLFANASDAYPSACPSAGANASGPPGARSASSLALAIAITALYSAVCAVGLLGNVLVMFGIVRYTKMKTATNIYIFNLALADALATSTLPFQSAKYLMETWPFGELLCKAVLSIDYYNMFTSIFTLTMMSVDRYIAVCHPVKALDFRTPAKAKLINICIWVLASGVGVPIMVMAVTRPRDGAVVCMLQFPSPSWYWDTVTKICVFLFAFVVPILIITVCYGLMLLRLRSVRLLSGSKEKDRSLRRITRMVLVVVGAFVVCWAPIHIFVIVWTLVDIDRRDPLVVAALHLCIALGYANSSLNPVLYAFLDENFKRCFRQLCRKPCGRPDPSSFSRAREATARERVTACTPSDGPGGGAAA
Provide the recorded pKi for the entries that follow.
Give bare numbers, as −log10 of the molar value.

CCOC(=O)[C@]12C[C@@H]1[C@@H](n1ccc3c(NCCc4ccccc4)nc(C#Cc4ccccc4)nc31)[C@H](O)[C@@H]2O ... 6.20

Let's switch to this compound now.
-- ask Find the measured pKi: item `CCOC(=O)[C@]12C[C@@H]1[C@@H](n1ccc3c(NC)nc(C#Cc4ccc(Cl)s4)nc31)[C@H](O)[C@@H]2O` , target or system Delta-type opioid receptor (Homo sapiens).
-- reply 6.10

---

target: UniProt P28223
Sequence (P28223 whole entry): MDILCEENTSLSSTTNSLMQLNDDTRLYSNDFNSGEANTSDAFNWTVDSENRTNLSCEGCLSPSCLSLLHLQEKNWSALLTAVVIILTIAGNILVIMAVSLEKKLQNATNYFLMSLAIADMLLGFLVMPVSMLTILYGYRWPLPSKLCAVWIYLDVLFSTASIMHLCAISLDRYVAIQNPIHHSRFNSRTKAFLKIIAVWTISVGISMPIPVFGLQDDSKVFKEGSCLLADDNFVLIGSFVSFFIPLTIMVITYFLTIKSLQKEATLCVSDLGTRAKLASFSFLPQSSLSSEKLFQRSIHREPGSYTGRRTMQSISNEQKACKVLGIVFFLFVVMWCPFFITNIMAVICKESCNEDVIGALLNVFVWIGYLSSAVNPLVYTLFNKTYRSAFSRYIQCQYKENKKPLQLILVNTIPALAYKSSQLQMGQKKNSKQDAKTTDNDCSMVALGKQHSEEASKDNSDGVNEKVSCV
pKi: −log10 of the molar value.
Provide the recorded pKi for the entries that follow.

OC[C@]12C[C@@H]1[C@@H](n1cnc3c(NC(C4CC4)C4CC4)nc(Cl)nc31)[C@H](O)[C@@H]2O ... < 5.00
CCOC(=O)[C@]12C[C@@H]1[C@@H](n1cnc3c(NC(C4CC4)C4CC4)nc(Cl)nc31)[C@H](O)[C@@H]2O ... < 5.00

-- ask Sample `CNC(=O)[C@]12C[C@@H]1[C@@H](n1cnc3c(NC(C4CC4)C4CC4)nc(Cl)nc31)[C@H](O)[C@@H]2O` — what was its pKi?
-- reply < 5.00

Cited source for all entries: ChEMBL document CHEMBL5233204
